Source: patent US8552004B2

TARGET OR TEST SYSTEM: ATR (Homo sapiens (Human), UniProt Q13535)
Sequence (Q13535 whole entry): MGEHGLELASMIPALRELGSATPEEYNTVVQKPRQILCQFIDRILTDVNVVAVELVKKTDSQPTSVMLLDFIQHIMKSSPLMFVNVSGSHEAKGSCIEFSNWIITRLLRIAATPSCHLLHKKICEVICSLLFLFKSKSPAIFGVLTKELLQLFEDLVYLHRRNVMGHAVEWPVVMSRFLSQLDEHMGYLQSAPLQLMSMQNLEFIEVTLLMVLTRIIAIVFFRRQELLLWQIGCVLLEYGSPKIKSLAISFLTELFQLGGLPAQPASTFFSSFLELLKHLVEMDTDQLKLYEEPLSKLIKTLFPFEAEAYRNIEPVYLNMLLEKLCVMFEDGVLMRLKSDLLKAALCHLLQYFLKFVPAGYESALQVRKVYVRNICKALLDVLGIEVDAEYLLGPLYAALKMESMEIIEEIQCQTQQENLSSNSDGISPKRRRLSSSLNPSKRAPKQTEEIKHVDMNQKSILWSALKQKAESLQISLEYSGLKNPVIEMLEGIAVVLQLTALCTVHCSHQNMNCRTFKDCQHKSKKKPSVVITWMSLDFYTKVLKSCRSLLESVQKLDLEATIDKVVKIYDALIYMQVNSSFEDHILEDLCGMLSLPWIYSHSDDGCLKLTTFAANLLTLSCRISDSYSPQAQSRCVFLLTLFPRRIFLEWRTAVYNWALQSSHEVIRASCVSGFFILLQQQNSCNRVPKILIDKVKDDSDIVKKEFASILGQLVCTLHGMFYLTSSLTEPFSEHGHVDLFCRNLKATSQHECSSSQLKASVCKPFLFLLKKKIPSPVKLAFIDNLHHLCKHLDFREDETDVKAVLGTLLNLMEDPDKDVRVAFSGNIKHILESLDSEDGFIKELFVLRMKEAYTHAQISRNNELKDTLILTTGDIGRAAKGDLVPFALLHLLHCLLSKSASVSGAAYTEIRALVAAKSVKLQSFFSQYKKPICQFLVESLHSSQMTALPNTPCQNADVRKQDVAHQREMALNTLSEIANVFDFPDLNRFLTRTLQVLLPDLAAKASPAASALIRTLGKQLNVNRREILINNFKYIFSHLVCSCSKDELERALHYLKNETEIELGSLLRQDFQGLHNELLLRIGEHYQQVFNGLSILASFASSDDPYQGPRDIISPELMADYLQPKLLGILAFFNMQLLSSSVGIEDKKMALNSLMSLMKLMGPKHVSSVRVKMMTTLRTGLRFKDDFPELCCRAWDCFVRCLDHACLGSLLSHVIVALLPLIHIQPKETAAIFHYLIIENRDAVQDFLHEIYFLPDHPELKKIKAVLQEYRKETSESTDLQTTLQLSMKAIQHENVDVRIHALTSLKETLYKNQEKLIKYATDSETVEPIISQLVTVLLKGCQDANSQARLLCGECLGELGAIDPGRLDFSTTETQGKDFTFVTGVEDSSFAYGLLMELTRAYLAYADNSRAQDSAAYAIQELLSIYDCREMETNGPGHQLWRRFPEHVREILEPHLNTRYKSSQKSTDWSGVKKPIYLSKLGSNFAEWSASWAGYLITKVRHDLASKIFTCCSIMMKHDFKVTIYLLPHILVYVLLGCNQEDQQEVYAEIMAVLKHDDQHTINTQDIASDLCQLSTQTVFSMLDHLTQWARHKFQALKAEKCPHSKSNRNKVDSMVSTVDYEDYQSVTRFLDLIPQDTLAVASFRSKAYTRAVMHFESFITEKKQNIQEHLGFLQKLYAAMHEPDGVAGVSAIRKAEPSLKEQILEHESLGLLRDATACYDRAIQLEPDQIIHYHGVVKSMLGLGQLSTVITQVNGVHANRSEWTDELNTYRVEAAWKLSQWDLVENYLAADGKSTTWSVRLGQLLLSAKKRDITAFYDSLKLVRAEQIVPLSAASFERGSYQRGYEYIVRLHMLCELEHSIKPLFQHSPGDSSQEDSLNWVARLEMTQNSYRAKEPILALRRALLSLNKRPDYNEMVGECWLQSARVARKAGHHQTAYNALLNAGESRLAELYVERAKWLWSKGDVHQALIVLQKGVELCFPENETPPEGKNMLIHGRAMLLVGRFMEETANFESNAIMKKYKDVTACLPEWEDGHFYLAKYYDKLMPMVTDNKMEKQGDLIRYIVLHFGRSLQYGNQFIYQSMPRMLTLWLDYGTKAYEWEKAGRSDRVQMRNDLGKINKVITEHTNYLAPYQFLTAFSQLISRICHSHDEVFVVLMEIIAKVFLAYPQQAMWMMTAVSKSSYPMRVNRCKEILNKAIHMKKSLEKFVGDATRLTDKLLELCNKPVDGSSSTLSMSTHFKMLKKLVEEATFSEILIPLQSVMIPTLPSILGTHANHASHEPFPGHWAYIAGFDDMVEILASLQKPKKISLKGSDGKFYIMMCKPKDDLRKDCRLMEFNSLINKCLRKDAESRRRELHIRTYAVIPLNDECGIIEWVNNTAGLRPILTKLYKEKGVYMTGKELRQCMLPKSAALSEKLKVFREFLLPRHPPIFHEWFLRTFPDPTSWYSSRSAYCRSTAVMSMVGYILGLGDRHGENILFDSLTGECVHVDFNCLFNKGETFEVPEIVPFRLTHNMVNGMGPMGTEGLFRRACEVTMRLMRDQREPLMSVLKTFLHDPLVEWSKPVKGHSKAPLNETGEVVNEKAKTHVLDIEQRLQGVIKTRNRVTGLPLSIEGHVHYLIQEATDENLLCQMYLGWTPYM
Sequence (Q8WXE1 whole entry partner): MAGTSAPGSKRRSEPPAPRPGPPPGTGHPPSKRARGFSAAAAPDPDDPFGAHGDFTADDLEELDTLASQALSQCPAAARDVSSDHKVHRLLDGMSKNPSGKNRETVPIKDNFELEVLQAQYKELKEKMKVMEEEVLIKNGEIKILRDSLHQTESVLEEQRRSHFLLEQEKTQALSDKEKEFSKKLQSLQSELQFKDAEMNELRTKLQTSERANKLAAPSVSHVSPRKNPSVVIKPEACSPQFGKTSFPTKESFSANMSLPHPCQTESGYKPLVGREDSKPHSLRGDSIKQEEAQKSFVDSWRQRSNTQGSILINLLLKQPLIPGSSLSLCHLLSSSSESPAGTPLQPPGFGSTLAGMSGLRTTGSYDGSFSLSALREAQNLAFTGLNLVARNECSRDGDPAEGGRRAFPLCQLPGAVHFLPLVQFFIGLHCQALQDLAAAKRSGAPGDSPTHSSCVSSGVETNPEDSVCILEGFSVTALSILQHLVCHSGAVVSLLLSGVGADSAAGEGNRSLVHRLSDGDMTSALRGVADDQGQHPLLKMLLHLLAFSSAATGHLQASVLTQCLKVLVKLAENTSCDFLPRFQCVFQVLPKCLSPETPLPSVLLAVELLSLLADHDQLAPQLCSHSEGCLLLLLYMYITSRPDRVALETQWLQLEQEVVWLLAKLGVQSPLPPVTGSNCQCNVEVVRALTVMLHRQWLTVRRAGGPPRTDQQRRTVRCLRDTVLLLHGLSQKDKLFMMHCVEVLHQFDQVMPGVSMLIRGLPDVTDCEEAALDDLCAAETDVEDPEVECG
MEASUREMENT PROTOCOL: Enzyme Assay - ATR (Test (a))
Type: biochemical
MEASUREMENT PARAMETERS: ATR from HeLa nuclear extract, GST-p53N66 substrate, 3 μM ATP, arithmetic mean
MEASUREMENT LABEL: IC50 (µM)
One number for each entry, in µM.

// returns reported IC50 for input C[C@@H]1COCCN1c1cc(C[S@](C)(=N)=O)nc(-c2ccnc3[nH]ccc23)n1 0.034

---

TARGET OR TEST SYSTEM: ATR (Homo sapiens (Human), UniProt Q13535)
MEASUREMENT PROTOCOL: Cellular Assay - ATR, phosphorylation of Chk1 (Ser 345) in HT29 cells after 4NQO (Test (b))
Format: cell-based
MEASUREMENT PARAMETERS: cell assay Test (b); pChk1 Ser345 in HT29 cells, 3 μM 4NQO; arithmetic mean
MEASUREMENT LABEL: pIC50
One number for each entry, as −log10 of the molar value.

Example cases with answers are listed next.
SMI	OBSERVED VALUE
CNc1nc2cc(F)ccc2n1-c1nc(N2CCOC[C@H]2C)cc(C2([S@@](C)(=N)=O)CC2)n1	7.75
CNc1nc2cc(F)ccc2n1-c1nc(N2CCOC[C@H]2C)cc(C(C)(C)[S@@](C)(=N)=O)n1	7.74

Please give pIC50 for each item listed below.
1. CNc1nc2ccc(F)cc2n1-c1nc(N2CCOC[C@H]2C)cc(C2([S@](C)(=N)=O)CC2)n1
2. C[C@@H]1COCCN1c1cc(C2([S@@](C)(=N)=O)CC2)nc(-c2cccc3[nH]ccc23)n1
3. CNc1nc2ccc(F)cc2n1-c1nc(N2CCOC[C@H]2C)cc(C(C)(C)[S@](C)(=N)=O)n1
4. C[C@@H]1COCCN1c1cc(C[S@](C)(=N)=O)nc(-c2ccnc3[nH]ccc23)n1
5. CNc1nc2ccccc2n1-c1nc(N2CCOC[C@H]2C)cc(C(C)(C)[S@](C)(=N)=O)n1

7.54
7.89
7.48
6.24
8.07

---

TARGET OR TEST SYSTEM: ATR (Homo sapiens (Human), UniProt Q13535)
MEASUREMENT PROTOCOL: Cellular Assay - ATR, phosphorylation of Chk1 (Ser 345) in HT29 cells after 4NQO (Test (b))
Type: cell-based
MEASUREMENT PARAMETERS: cell assay Test (b); pChk1 Ser345 in HT29 cells, 3 μM 4NQO; arithmetic mean
MEASUREMENT LABEL: IC50

SMI	OBSERVED VALUE
CNc1nc2c(F)cccc2n1-c1nc(N2CCOC[C@H]2C)cc(C(C)(C)[S@](C)(=N)=O)n1	0.0708 µM
CNc1nc2c(F)cccc2n1-c1nc(N2CCOC[C@H]2C)cc(C2([S@@](C)(=N)=O)CC2)n1	0.109 µM
C[C@@H]1COCCN1c1cc(C2([S@](C)(=N)=O)CC2)nc(-c2cccc3[nH]ccc23)n1	0.0758 µM

Consider now this further molecule.
// returns reported IC50 for input CNc1nc2ccc(F)cc2n1-c1nc(N2CCOC[C@H]2C)cc(C(C)(C)[S@@](C)(=N)=O)n1 0.0444 µM

---

Consider the following molecules; for each one, report its pIC50.
TARGET OR TEST SYSTEM: ATR (Homo sapiens (Human))
MEASUREMENT PROTOCOL: Cellular Assay - ATR, phosphorylation of Chk1 (Ser 345) in HT29 cells after 4NQO (Test (b))
Assay type: cell-based
MEASUREMENT PARAMETERS: cell assay Test (b); pChk1 Ser345 in HT29 cells, 3 μM 4NQO; arithmetic mean
Numbers only, as −log10 of the molar value.

Example cases with answers are listed next.
MOLECULE	pIC50
CNc1nc2cc(F)ccc2n1-c1nc(N2CCOC[C@H]2C)cc(C(C)(C)[S@](C)(=N)=O)n1 [Example 5.04]	7.79
C[C@@H]1COCCN1c1cc(C2([S@@](C)(=N)=O)CC2)nc(-n2c(N)nc3ccccc32)n1 [Example 2.08]	8.56

Consider now this further molecule.
// returns reported pIC50 for input CNc1nc2ccccc2n1-c1nc(N2CCOC[C@H]2C)cc(C(C)(C)[S@@](C)(=N)=O)n1 [Example 3.01] 7.89
